- target: beta-catenin (Homo sapiens, UniProt P35222)
- Construct: made in house; host or cells: E. coli BL21 (DE3) pLysS
- Sequence (P35222 134-665): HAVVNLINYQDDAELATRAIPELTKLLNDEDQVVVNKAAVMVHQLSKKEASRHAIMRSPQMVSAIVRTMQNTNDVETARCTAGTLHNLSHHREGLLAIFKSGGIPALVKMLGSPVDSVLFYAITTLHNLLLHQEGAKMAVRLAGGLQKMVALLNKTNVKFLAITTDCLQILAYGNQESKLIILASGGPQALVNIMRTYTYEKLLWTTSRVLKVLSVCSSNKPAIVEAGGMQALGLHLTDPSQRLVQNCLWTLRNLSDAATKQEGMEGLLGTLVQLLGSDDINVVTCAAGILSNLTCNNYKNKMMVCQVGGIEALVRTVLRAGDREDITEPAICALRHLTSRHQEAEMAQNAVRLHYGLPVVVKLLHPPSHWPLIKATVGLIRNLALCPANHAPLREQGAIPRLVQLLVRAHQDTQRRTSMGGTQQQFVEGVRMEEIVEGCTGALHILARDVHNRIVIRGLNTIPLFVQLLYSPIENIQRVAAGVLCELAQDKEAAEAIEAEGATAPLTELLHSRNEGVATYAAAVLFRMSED
- run_description: Phage Library Screening with NGS, beta-catenin
- Assay type: binding
- cond: BLANK, second column
Ends that are not written are not given here.
measured_metric: Target Concentration BLANK (phage screen NGS readout)

DPAVMACYEAAFQCAYW; 0
DPAQNICEWAALHCDLI; 1
DPAILECHMAAFECYIE; 0
DPADDFCMWAAEHCELL; 0
DPAEWICEHAALLCSVL; 0
DPAVLDCHIAALDCHAH; 0

(1) DPALWNCDHAALLCDHQ
(2) DPAEHDCMLAAHFCRHF
Just curious, which one has the larger Target Concentration BLANK (phage screen NGS readout) reading, 1 or 2 ? Lab note: record the label of whichever item you select. 2

(a) DPAVIQCYQAAFHCDYQ
(b) DPAWQNCTWAAFHCELL
(c) DPADYECVIAAQVCQHF (not fully specified; cysteine pairing not given here)
Would you mind ranking these sequences by ascending Target Concentration BLANK (phage screen NGS readout)? Submit the labels in the order that the ranking request calls for. a, b, c
(a: 0, b: 1, c: 4)

(I) DPAILDCSIAAIDCAYS
(II) DPAILTCYEAAFTCQYQ
Hi, I'm comparing two records. Which one has the lower Target Concentration BLANK (phage screen NGS readout), I or II ? Record your answer as the label of the chosen record. I
(I: 0, II: 1)

(A) DPAQFYCEHAALLCRWE
(B) DPAHWVCEHAALNCDQN
Would you let me know which has the greater Target Concentration BLANK (phage screen NGS readout) value, A or B ? Label of pick, please. B

These entries and their values trace back to patent US20240376151A1.
